Reported IC50, CK2a2 (Homo sapiens (Human)).

O=c1cc(-c2ccc(Cl)cc2)[nH]c2c(-c3ccccn3)c(O)nn12: ≥ 10 µM

*Q* So what does the record say about IC50 for O=c1cc(-c2ccc3c(c2)OCCO3)[nH]c2c(-c3ccccn3)c(O)nn12 ?
*A* ≤ 10 µM

*Q* // returns reported IC50 for input CCCNC(=O)c1c(O)nn2c(=O)cc(-c3ccc4c(c3)OCO4)[nH]c12
*A* ≤ 10 µM

*Q* Form field: reported IC50 of CC(=O)Nc1nn2c(=O)cc(-c3ccc4c(c3)OCO4)[nH]c2c1-c1ccccn1
*A* ≤ 10 µM

*Q* Quick one: IC50 for O=c1cc(-c2ccc(Cl)cc2)[nH]c2c(-c3cccnc3)c(O)nn12 ?
*A* ≥ 10 µM

*Q* Param item = Cc1nn2c(=O)cc(-c3ccc4c(c3)OCO4)[nH]c2c1-c1ccccc1 ; retrieve measured IC50.
*A* ≤ 10 µM

----------
# pIC50 per record follows
target: hPASK (kinase domain) (Homo sapiens (Human))
Sequence (Q96RG2 999-1251): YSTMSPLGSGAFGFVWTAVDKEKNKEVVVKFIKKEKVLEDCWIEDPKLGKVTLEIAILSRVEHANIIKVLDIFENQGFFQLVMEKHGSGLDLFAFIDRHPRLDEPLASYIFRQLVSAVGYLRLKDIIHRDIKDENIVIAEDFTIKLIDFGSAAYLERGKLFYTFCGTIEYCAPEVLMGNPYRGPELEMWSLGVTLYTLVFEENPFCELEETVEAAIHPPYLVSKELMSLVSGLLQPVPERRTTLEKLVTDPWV
pIC50: −log10 of the molar value.

For orientation, consider the following solved cases.
Cc1nn2c(=O)cc(-c3ccc4c(c3)OCO4)[nH]c2c1-c1ccccc1: ≥ 5.00
Cc1cc(=O)n2nc(-c3cccc(Br)c3)cc2[nH]1: ≤ 5.00
O=c1cc(-c2ccc3c(c2)OCO3)[nH]c2c(-c3ccccc3)cnn12: ≥ 5.00

Okay, now this molecule:
*Q* Param readout= pIC50; system= hPASK (kinase domain) (Homo sapiens (Human)); entry= Cc1nn2c(=O)cc(-c3ccc4c(c3)OCO4)[nH]c2c1-c1ccccn1 ; returns value.
*A* ≥ 5.00
